# Tgt: α5β2γ2 subtype GABAAR (Homo sapiens, UniProt P18507+P31644)
# Construct: expressed in transfected cells
# Sequence (P31644 32-462): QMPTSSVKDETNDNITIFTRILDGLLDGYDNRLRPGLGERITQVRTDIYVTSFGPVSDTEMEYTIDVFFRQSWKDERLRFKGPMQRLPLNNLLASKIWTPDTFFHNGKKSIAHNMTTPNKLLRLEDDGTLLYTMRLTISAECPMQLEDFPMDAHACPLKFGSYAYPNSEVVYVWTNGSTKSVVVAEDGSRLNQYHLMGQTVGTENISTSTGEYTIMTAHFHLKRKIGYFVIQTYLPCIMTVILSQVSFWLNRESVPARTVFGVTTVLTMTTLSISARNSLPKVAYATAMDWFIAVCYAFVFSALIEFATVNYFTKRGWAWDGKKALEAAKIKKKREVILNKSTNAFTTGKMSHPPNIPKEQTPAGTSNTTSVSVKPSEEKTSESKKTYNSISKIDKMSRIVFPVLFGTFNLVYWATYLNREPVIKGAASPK
# Sequence (P47870 25-512 partner limits assumed): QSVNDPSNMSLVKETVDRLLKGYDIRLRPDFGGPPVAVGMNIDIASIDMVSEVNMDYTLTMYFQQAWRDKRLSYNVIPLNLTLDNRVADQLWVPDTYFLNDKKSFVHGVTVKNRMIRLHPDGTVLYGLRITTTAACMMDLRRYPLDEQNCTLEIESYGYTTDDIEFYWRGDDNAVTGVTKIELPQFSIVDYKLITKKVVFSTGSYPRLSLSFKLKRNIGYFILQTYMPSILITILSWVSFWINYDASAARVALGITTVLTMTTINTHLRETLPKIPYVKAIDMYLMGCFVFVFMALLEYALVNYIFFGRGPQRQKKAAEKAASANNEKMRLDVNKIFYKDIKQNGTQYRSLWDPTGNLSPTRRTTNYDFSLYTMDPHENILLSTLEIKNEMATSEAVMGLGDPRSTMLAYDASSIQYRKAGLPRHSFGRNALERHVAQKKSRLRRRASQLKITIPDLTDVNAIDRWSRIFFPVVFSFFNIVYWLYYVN
# Sequence (P18507 40-467 limits assumed): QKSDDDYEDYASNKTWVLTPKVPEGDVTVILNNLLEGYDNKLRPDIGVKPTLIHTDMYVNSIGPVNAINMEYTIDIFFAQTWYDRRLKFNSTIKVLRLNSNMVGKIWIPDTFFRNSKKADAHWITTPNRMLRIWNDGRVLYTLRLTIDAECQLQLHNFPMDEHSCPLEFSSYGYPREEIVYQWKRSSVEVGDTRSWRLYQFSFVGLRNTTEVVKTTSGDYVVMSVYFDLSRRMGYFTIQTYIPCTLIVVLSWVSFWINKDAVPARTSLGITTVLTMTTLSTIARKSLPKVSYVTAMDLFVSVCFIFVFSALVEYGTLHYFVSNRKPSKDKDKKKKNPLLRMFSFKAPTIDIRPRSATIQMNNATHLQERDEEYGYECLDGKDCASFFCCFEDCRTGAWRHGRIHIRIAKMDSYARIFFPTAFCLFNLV
# Run description: Positive allosteric modulator activity: potentiation of EC20 GABA current in oocytes
# Format: cell-based
# Experimental conditions: read-out: GABA α5 Functional Data (potentiation), @ 100 nM, reported as ranges
Catalogue of molecules with associated activation at 0.1 µM

{"columns": ["Smiles data", "activation at 0.1 µM"],
 "data": [
  ["COCc1nnc2n1Cc1c(C#CCc3cccc(F)c3)ncn1-c1ccc(Cl)cc1-2", "20 to 50%"],
  ["COCc1nnc2n1Cc1c(C3=N[C@H](c4ccccc4)CO3)ncn1-c1ccc(OC)cc1-2", "20 to 50%"],
  ["COc1ccc2c(c1)-n1nncc1Cc1c(C#CCc3ccccc3)ncn1-2", "5 to 20%"],
  ["COc1cccc(C#Cc2ncn3c2Cc2cnnn2-c2cc(OC)ccc2-3)c1", "5 to 20%"],
  ["CC#Cc1ncn2c1Cn1c(COc3ccccc3F)nnc1-c1cc(Cl)ccc1-2", "20 to 50%"],
  ["COc1ccc2c(c1)-c1nnc(COc3cccc(F)c3)n1Cc1c(-c3noc(C(C)C)n3)ncn1-2", "> 50%"],
  ["COCc1nnc2n1Cc1c(-c3ncco3)ncn1-c1ccc(Cl)cc1-2", "20 to 50%"],
  ["N#Cc1ncn2c1Cc1c(COc3ccccc3)nnn1-c1cc(Cl)ccc1-2", "20 to 50%"],
  ["COCc1nnc2n1Cc1c(C3=N[C@@H](c4ccc(OC)cc4)CO3)ncn1-c1ccc(Cl)cc1-2", "5 to 20%"],
  ["CCOCc1nnc2n1Cc1c(-c3noc(C(C)C)n3)ncn1-c1ccc(F)cc1-2", "20 to 50%"],
  ["COc1ccc2c(c1)-n1nnc(COc3ccc(F)cc3)c1Cc1c(-c3noc(C)n3)ncn1-2", "20 to 50%"],
  ["Cc1nnn2c1Cc1c(C(=O)OCC(C)(C)C)ncn1-c1ccc(F)cc1-2", "> 50%"],
  ["COCc1nnc2n1Cc1c(-c3nc(-c4ccc(F)cc4)co3)ncn1-c1ccc(Cl)cc1-2", "20 to 50%"],
  ["CCOC(=O)c1ncn2c1Cn1c(COc3ccccc3)nnc1-c1cc(F)ccc1-2", "20 to 50%"],
  ["CCOC(=O)c1ncn2c1Cn1c(Oc3ccccc3)nnc1-c1cc(OC)ccc1-2", "5 to 20%"],
  ["COc1ccc2c(c1)-c1nnc(COCc3ccccc3F)n1Cc1c(-c3noc(C(C)C)n3)ncn1-2", "20 to 50%"],
  ["COc1ccc2c(c1)-n1nnc(COc3cccc(F)c3)c1Cc1c(-c3noc(C)n3)ncn1-2", "5 to 20%"],
  ["CCOCc1nnc2n1Cc1c(C#Cc3ccccc3C)ncn1-c1ccc(Cl)cc1-2", "5 to 20%"]
]}

###

Catalogue of molecules with associated activation at 0.1 µM
# Tgt: α5β2γ2 subtype GABAAR (Homo sapiens, UniProt P18507+P31644)
# Construct: expressed in transfected cells
# Run description: Positive allosteric modulator activity: potentiation of EC20 GABA current in oocytes
# Assay type: cell-based
# Experimental conditions: read-out: GABA α5 Functional Data (potentiation), @ 100 nM, reported as ranges
Endpoint name: activation at 0.1 µM

{"columns": ["Molecule", "Tgt", "Test result"],
 "data": [
  ["CCc1nc(-c2ncn3c2Cc2c(Cc4ccc(F)cc4)nnn2-c2cc(OC)ccc2-3)no1 [Compound 195]", "α5β2γ2 subtype GABAAR (Homo sapiens, UniProt P18507+P31644)", "20 to 50%"],
  ["CC(C)c1nc(-c2ncn3c2Cn2c(COc4ccccc4)nnc2-c2cc(F)ccc2-3)no1 [Compound 147]", "α5β2γ2 subtype GABAAR (Homo sapiens, UniProt P18507+P31644)", "20 to 50%"],
  ["COc1ccc2c(c1)-c1nnc(COCc3ccccc3)n1Cc1c(C#N)ncn1-2 [Compound 166]", "α5β2γ2 subtype GABAAR (Homo sapiens, UniProt P18507+P31644)", "5 to 20%"],
  ["COc1ccc2c(c1)-n1nncc1Cc1c(C#Cc3ccccc3)ncn1-2 [Compound 404]", "α5β2γ2 subtype GABAAR (Homo sapiens, UniProt P18507+P31644)", "5 to 20%"],
  ["Cc1noc(-c2ncn3c2Cc2c(C)nnn2-c2ccccc2-3)n1 [Compound 126]", "α5β2γ2 subtype GABAAR (Homo sapiens, UniProt P18507+P31644)", "20 to 50%"],
  ["Cc1nnn2c1Cc1c(-c3noc(C(C)C)n3)ncn1-c1ccccc1-2 [Compound 133]", "α5β2γ2 subtype GABAAR (Homo sapiens, UniProt P18507+P31644)", "5 to 20%"],
  ["COc1ccc2c(c1)-n1nncc1Cc1c(C#CCc3cccc(F)c3)ncn1-2 [Compound 419]", "α5β2γ2 subtype GABAAR (Homo sapiens, UniProt P18507+P31644)", "20 to 50%"],
  ["FC(F)(F)COCc1nnc2n1Cc1c(-c3nc(-c4ccccc4)co3)ncn1-c1ccc(Cl)cc1-2 [Compound 313]", "α5β2γ2 subtype GABAAR (Homo sapiens, UniProt P18507+P31644)", "20 to 50%"],
  ["CCOCc1nnc2n1Cc1c(-c3noc(C(C)C)n3)ncn1-c1ccc(OC)cc1-2 [Compound 173]", "α5β2γ2 subtype GABAAR (Homo sapiens, UniProt P18507+P31644)", "> 50%"],
  ["Clc1ccc2c(c1)-c1nnc(COc3ccccc3)n1Cc1c(-c3ncco3)ncn1-2 [Compound 349]", "α5β2γ2 subtype GABAAR (Homo sapiens, UniProt P18507+P31644)", "5 to 20%"],
  ["Cc1nc(-c2ncn3c2Cc2c(C)nnn2-c2ccccc2-3)no1 [Compound 127]", "α5β2γ2 subtype GABAAR (Homo sapiens, UniProt P18507+P31644)", "20 to 50%"],
  ["Cc1nnn2c1Cc1c(C(=O)OC(C)C)ncn1-c1ccc(F)cc1-2 [Compound 112]", "α5β2γ2 subtype GABAAR (Homo sapiens, UniProt P18507+P31644)", "5 to 20%"]
]}
